- SYSTEM: A disintegrin and metalloproteinase with thrombospondin motifs 5 (Homo sapiens)
- Sequence (Q9UNA0 whole entry): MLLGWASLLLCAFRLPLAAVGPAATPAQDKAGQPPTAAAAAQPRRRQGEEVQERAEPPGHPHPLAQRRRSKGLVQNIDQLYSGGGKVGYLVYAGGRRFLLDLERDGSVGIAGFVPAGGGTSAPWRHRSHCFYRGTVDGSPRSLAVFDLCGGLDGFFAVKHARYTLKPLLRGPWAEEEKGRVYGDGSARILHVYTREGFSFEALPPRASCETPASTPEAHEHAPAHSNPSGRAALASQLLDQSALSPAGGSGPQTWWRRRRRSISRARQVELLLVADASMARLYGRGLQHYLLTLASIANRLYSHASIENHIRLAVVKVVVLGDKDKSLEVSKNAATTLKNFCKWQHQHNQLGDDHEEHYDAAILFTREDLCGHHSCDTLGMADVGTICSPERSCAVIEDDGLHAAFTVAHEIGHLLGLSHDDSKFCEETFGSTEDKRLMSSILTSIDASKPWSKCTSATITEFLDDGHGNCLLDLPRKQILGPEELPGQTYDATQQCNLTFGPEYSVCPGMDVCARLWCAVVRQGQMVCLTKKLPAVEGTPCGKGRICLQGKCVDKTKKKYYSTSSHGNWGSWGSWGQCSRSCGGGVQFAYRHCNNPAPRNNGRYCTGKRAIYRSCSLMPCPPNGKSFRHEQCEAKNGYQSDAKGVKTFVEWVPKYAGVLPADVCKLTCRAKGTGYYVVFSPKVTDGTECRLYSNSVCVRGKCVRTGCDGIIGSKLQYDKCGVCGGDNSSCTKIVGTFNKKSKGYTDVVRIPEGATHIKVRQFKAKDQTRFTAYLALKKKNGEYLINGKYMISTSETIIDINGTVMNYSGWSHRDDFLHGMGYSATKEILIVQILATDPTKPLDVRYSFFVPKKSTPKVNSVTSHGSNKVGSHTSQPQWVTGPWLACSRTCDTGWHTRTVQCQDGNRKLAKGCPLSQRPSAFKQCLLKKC
REPORTED METRIC: IC50 (nM)

Cc1noc(C)c1CCC1CCN(S(=O)(=O)CC2(N(O)C=O)CCC2)CC1	1500

P: Cc1noc(C)c1CCC1CCN(S(=O)(=O)CC2(N(O)C=O)CCCCC2)CC1
Q: O=CN(O)C1(CS(=O)(=O)N2CCC(CCc3ccccc3)CC2)CCOCC1
Return label of the item with the larger IC50. Candidates: P , Q . Selection: enter the item's label.
Q
(Q: 1700 nM, P: 850 nM)

====

- PROCEDURE DETAILS: Volume of distribution at steady state in rat at 2 mg/kg, iv
- Format: ADME, organism-based
- Set-up: dose 2 mg/kg, route intravenous
- MEASUREMENT CONTEXT: in vivo, read-out: Vdss
REPORTED METRIC: Vd (L/kg)

Cc1cc(F)ccc1CCC1CCN(S(=O)(=O)CC2(N(O)C=O)CCOCC2)CC1	2
Cc1cc(CCC2CCN(S(=O)(=O)CC3(N(O)C=O)CCOCC3)CC2)c(C)cn1	2

A: Cc1noc(C)c1CCC1CCN(S(=O)(=O)CC2(N(O)C=O)CCOCC2)CC1
B: Cc1nsc(C)c1CCC1CCN(S(=O)(=O)CC2(N(O)C=O)CCOCC2)CC1
Could you tell me which of these two has the smaller Vd figure? First: A Second: B Please identify the chosen entry by its label.
B

====

- PROCEDURE DETAILS: Half life in mouse
- Type: ADME, organism-based
- MEASUREMENT CONTEXT: in vivo
REPORTED METRIC: half-life (min)

I: Cc1noc(C)c1CCC1CCN(S(=O)(=O)C[C@](C)(C[C@H](C)c2ncc(F)cn2)N(O)C=O)CC1
II: Cc1noc(C)c1CCC1CCN(S(=O)(=O)CC2(N(O)C=O)CCOCC2)CC1
Look at I and II . Which one has the lower recorded half-life number? In your reply, give the label of the chosen option.
II
(II: 156 min, I: 324 min)

====

- PROCEDURE DETAILS: Half life in rat at 2 mg/kg, iv
- Type: ADME, organism-based
- Design: dose 2 mg/kg, route intravenous
- MEASUREMENT CONTEXT: in vivo
REPORTED METRIC: half-life (h)

Cc1noc(C)c1CCC1CCN(S(=O)(=O)CC2(N(O)C=O)CCOCC2)CC1	8.9

A: Cc1nsc(C)c1CCC1CCN(S(=O)(=O)CC2(N(O)C=O)CCOCC2)CC1
B: Cc1cc(CCC2CCN(S(=O)(=O)CC3(N(O)C=O)CCOCC3)CC2)c(C)cn1
Field: lower half-life | Options: A / B Indicate which entry you chose by stating its label.
B
(B: 4 h, A: 6.3 h)

====

- SYSTEM: A disintegrin and metalloproteinase with thrombospondin motifs 5 (Homo sapiens, UniProt Q9UNA0)
- PROCEDURE DETAILS: Inhibition of ADAMTS-5 assessed as substrate cleavage after 16 hrs by fluorescence assay
REPORTED METRIC: IC50 (nM)

Examples with answers:
Cc1noc(C)c1CCC1CCN(S(=O)(=O)CC2(N(O)C=O)CCOCC2)CC1	860
Cc1cccnc1CCC1CCN(S(=O)(=O)CC2(N(O)C=O)CCOCC2)CC1	580
Cc1cc(Cl)ccc1CCC1CCN(S(=O)(=O)CC2(N(O)C=O)CCOCC2)CC1	65
Cc1ccccc1CCC1CCN(S(=O)(=O)CC2(N(O)C=O)CCOCC2)CC1	31
Cc1nsc(C)c1CCC1CCN(S(=O)(=O)CC2(N(O)C=O)CCOCC2)CC1	450

I: Cc1noc(C)c1CCC1CCN(S(=O)(=O)CC2(N(O)C=O)CCS(=O)(=O)CC2)CC1
II: CC(=O)N1CCC(CS(=O)(=O)N2CCC(CCc3c(C)noc3C)CC2)(N(O)C=O)CC1
// task: argmin of IC50 over [ I , II ] Record your answer as the label of the chosen record.
I
(I: 270 nM, II: 820 nM)

====

- SYSTEM: UniProtKB P50281
- PROCEDURE DETAILS: Inhibition of recombinant human MMP-14 assessed as substrate cleavage after 20 hrs by fluorescence assay
pIC50: −log10 of the molar value.
REPORTED METRIC: pIC50

Previously resolved entries follow.
Cc1noc(C)c1CCC1CCN(S(=O)(=O)CC2(N(O)C=O)CCOC(C)(C)C2)CC1 (stereo not given)	< 5.00
Cc1noc(C)c1CCC1CCN(S(=O)(=O)CC2(N(O)C=O)CCN(S(C)(=O)=O)CC2)CC1	< 5.00
Cc1noc(C)c1CCC1CCN(S(=O)(=O)CC2(N(O)C=O)CCS(=O)(=O)CC2)CC1	< 5.00
O=CN(O)C1(CS(=O)(=O)N2CCC(CCc3ccccc3)CC2)CCOCC1	5.92
CC(=O)N1CCC(CS(=O)(=O)N2CCC(CCc3c(C)noc3C)CC2)(N(O)C=O)CC1	< 5.00

Would you mind telling me what pIC50 value was observed for Cc1noc(C)c1CCC1CCN(S(=O)(=O)CC2(N(O)C=O)CCN(C(=O)N3CCC3)CC2)CC1 ?
< 5.00

Please give the result for Cc1noc(C)c1CCC1CCN(S(=O)(=O)CC2(N(O)C=O)CCOCC2)CC1 too.
< 4.64

And for Cc1nsc(C)c1CCC1CCN(S(=O)(=O)CC2(N(O)C=O)CCOCC2)CC1 ?
< 5.00

====

- SYSTEM: Collagenase 3 (Homo sapiens)
- PROCEDURE DETAILS: Inhibition of recombinant human MMP-13 assessed as substrate cleavage after 20 hrs by fluorescence assay
REPORTED METRIC: IC50 (µM)

Cc1ccncc1CCC1CCN(S(=O)(=O)CC2(N(O)C=O)CCOCC2)CC1	5.9

P: Cc1ncccc1CCC1CCN(S(=O)(=O)CC2(N(O)C=O)CCOCC2)CC1
Q: CC(C)(CS(=O)(=O)N1CCN(c2ccc(F)cc2)CC1)N(O)C=O
R: Cc1cc(CCC2CCN(S(=O)(=O)CC3(N(O)C=O)CCOCC3)CC2)c(C)cn1
S: Cc1cnc(C)c(CCC2CCN(S(=O)(=O)CC3(N(O)C=O)CCOCC3)CC2)c1
T: CC(CS(=O)(=O)N1CCN(c2ccc(F)cc2)CC1)N(O)C=O (racemic)
Ascending by IC50, please. Please write the labels in the order that was asked for.
T, Q, P, S, R
(T: 0.154 µM, Q: 1.4 µM, P: 2 µM, S: 8.4 µM, R: 46 µM)

a: Cc1cc(S(C)(=O)=O)ccc1CCC1CCN(S(=O)(=O)CC2(N(O)C=O)CCOCC2)CC1
b: Cc1cccnc1CCC1CCN(S(=O)(=O)CC2(N(O)C=O)CCOCC2)CC1
c: CN1CCC(CS(=O)(=O)N2CCN(c3ccc(F)cc3)CC2)(N(O)C=O)CC1
d: O=CN(O)C1(CS(=O)(=O)N2CCC(CCc3ccccc3)CC2)CCOCC1
Hey, can you sort those molecules up there by IC50, smallest first? // respond by listing labels in the order requested
d, c, b, a

A: Cc1cc(F)ccc1CCC1CCN(S(=O)(=O)CC2(N(O)C=O)CCOCC2)CC1
B: Cc1noc(C)c1CCC1CCN(S(=O)(=O)CC2(N(O)C=O)CCN(S(C)(=O)=O)CC2)CC1
Of A and B , whose reported IC50 is numerically smaller? Record your answer as the label of the chosen record.
A
(A: 0.94 µM, B: 4.6 µM)
